System: Xylose reductase (Candida tenuis)
Test: The catalytic constant(kcat) for the NADH-catalyzed by aldose reductase from candida tenuis
Conditions: Yamadazyma tenuis
MEASURED PROPERTY: k cat (s⁻¹)
Could you give me the number in s⁻¹? Just the number is fine.

Request: // map CC[C@H]1OC(O)[C@H](O)[C@H]1O (some centres undefined) to recorded k cat (system: Xylose reductase (Candida tenuis))
Response: 20.6

Request: GET /values?readout=k cat&system=Xylose reductase (Candida tenuis)&item= OC1OC(C(F)CF)C(O)C1O (centres undefined)
Response: 21.4

Request: Identify the measured k cat of OC1O[C@H](CF)[C@H](O)[C@H]1O (some centres undefined) for Xylose reductase (Candida tenuis).
Response: 22.3

Request: Missing value: k cat, Xylose reductase (Candida tenuis), entry C[C@H]1OC(O)[C@H](O)[C@H]1O (some centres undefined) . Fill in?
Response: 21.6
